- SYSTEM_UNDER_TEST: Casein kinase I isoform delta (Homo sapiens) (UniProt P48730)
- Sequence (P48730 whole entry, looked up, canonical isoform): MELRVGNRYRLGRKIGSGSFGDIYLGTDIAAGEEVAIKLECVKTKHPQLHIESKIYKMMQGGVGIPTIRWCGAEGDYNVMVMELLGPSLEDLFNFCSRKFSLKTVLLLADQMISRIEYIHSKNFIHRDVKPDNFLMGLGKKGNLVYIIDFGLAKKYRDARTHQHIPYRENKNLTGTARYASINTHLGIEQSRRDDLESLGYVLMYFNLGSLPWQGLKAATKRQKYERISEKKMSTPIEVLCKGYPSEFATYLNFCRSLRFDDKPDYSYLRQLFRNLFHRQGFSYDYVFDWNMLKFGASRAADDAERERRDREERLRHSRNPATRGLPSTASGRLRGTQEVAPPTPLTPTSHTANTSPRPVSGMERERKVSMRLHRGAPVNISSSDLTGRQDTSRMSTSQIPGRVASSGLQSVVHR
- STATED_CONDITIONS: Compound concentration 20.0 uM
- Description: Thermal Shift Assay. Domain: start/stop: M1-K294
READOUT_LABEL: ΔTm (°C)
The reply should be a number in °C, with the unit left off.

// solved cases for ΔTm follow
Cc1ccsc1C(=CCCN1CCC[C@@H](C(=O)O)C1)c1sccc1C    -0.21
CCC(=O)N1CCOc2c(cc(-c3cc(OC)cc(OC)c3)cc2C(=O)N[C@H]2CCCN(C)C2)C1    0.5

Continue with the next molecule.
Ask: Data request, read-out ΔTm, for CNc1ncc2cc(-c3cc(NC(=O)NCCC(C)(C)C)c(F)cc3C)c(C)nc2n1
Result: 0.25
